# assay: Serum vorinostat pharmacokinetics
# Assay type: in vivo, human
# experimental-setup: human, serum, po, 200 mg, tmax, Mean, N 21; serum, first 200 mg oral dose day 1
assay-endpoint: Tmax (h)

>>> val("O=C(CCCCCCC(=O)Nc1ccccc1)NO [vorinostat, suberoylanilide hydroxamic acid]")
2.6

====

# assay: Serum vorinostat pharmacokinetics
# Assay type: in vivo, human
# experimental-setup: human, serum, oral, 200 mg, tmax, Median, N 21
assay-endpoint: Tmax (h)

>>> val("O=C(CCCCCCC(=O)Nc1ccccc1)NO [vorinostat, suberoylanilide hydroxamic acid]")
2

====

# assay: Serum vorinostat pharmacokinetics
# Assay type: in vivo, human
# experimental-setup: human, serum, oral, 200 mg, AUC0-inf, Geometric mean, N 20
assay-endpoint: AUC(0-inf) (ng·h/mL)

>>> val("O=C(CCCCCCC(=O)Nc1ccccc1)NO [vorinostat, suberoylanilide hydroxamic acid]")
722

Numbers sourced from paper PMC4332848.
